For each entry below, report its self-cleavage kobs at 10000 uM GlcN6P value.
B1: glmS ribozyme (parent)
chain: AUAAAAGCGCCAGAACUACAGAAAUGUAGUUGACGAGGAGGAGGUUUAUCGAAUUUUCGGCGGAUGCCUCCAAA

- Variants of: B1
- TEST_DETAILS: self-cleavage kobs at 10000 uM GlcN6P; higher = faster cleavage; RNA array
- CONDITION_SUMMARY: with glucosamine-6-phosphate
Variants at the floor of the assay were thinned out.
State the answer as a number, implicitly in s⁻¹.

Given G13U A39G , state its recorded self-cleavage kobs at 10000 uM GlcN6P. 0.00208

Record: U30G U47C C70G 7.72e-05

Record: U47A U65G U69C 0.00154

Record: A14U G32U U46C 4.16e-05

Record: A14G U46G C67A 0.00474

Record: U46A U47A 0.00631

Record: C11U C58A 5.15e-05

Record: G13A G32C U69G 5.76e-05

Record: U46A U47C 0.00157

Record: A52G U54A 0.00101

Record: A39C A48G 3.36e-05

Record: A52G G66U 0.00013

Record: G29U C71A 0.00103

Record: A12C G29U U69G 3.54e-05
